Readings of relative growth in counter assay for the listed compounds
Tested on: HEK293FT dCK*-only
ASSAY METHOD TEXT: relative growth in counter assay (no AraC = 100%, AraC + DMSO = 0%); higher = more growth rescue independent of IKZF1
APPLIED CONDITIONS: compound concentration: 5 uM; AraC concentration: 0.3 uM; overnight pretreatment + 4 days AraC

COMPOUND | relative growth in counter assay / %
NS(=O)(=O)Cc1noc2ccccc12 [zonisamide] | 2.4
CCn1c(=O)[nH]c2ccccc21 | -8.57
CCN(CC)CCCC(C)Nc1ccnc2cc(Cl)ccc12 (centres undefined) [Chloroquine Diphosphate] | 1.31
NC(=O)NC(=O)Cc1ccccc1 | 4.08
CN1CCCCC1CCN1c2ccccc2Sc2ccc(S(C)=O)cc21 (centres undefined) [mesoridazine besylate] | 10.8
CO[C@H]1CC(O[C@@H]2/C(C)=C/C[C@@H]3C[C@@H](C[C@]4(CC[C@H](C)[C@@H](C5CCCCC5)O4)O3)OC(=O)[C@@H]3C=C(C)/C(=N/O)[C@H]4OC/C(=C\C=C\[C@@H]2C)[C@]43O)O[C@@H](C)C1O (some centres undefined) | 10.4
Nc1ccc2ncnc(NCCc3ccc(Oc4ccccc4)cc3)c2c1 | -8.23
O=c1c(-c2ccccc2)c1-c1ccccc1 | -31.8
O=C1Nc2ccccc2/C1=C1/Nc2ccccc2/C1=N\O | 4.61
O=C(N/N=C/c1ccc([N+](=O)[O-])o1)c1ccc(O)cc1 | -1.19
CN(C)CC/C=C1\c2ccccc2CSc2ccccc21 [dosulepin] | -9.29
CN1CCC(=C2c3ccccc3Sc3ccccc32)CC1 | -4.99
NS(=O)(=O)c1cc2c(cc1Cl)NC(C(Cl)Cl)NS2(=O)=O (centres undefined) | -3.14
O=c1oc2c(O)c(O)cc3c(=O)oc4c(O)c(O)cc1c4c23 | -6.38
OC1=C(C[C@]([C@](CO)=O)(O)C[C@@H]4O[C@@]5([H])C[C@H](N)[C@H](O)[C@H](C)O5)C4=C(O)C3=C1C(C2=CC=CC(OC)=C2C3=O)=O | -35.2
O=C(Nc1ccc(Cl)cc1)Nc1ccc(Cl)c(Cl)c1 | 3.72
CC[N+](CC)(CC)CC(=O)Nc1c(C)cccc1C | -2.01
CC1(C)Oc2ccc(C#N)cc2[C@H](N(Cc2ncc[nH]2)c2ccc(Cl)cc2)[C@H]1O | -4.85
CC(=O)c1ccc(S(=O)(=O)NC(=O)NC2CCCCC2)cc1 | 5.07
